# Measurement Protocol: Acute oral toxicity in mice
# Experimental Context: mouse, in vivo, male mice, deaths after 7 days, Behrens-Kaerber, read-out: median lethal dose (LD50)
Outcome Measure: LD50 at 168 h

**Query** // query LD50 at 168 h value for entry C=Cn1cc(C(=O)O)c(=O)c2cc(F)c(N3CCC(N)C3)nc21 (stereo not shown)
**Result** > 4000 mg/kg
